Biological target: CXCR-4 transfected U87 cell line (U87.CXCR4) (Homo sapiens, UniProt P61073)
Construct: expressed in transfected cells; host or cells: U87 (U87.CXCR4)
Sequence (P61073 whole entry): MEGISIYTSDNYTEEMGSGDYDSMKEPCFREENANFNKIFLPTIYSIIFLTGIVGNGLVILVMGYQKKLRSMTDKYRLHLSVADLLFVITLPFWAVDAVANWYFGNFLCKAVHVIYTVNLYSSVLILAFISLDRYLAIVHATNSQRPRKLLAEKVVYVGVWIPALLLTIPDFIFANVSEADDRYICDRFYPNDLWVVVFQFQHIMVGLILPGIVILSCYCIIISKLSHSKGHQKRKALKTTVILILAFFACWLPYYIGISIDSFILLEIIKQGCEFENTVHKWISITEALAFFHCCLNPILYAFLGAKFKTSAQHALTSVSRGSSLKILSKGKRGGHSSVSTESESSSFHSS
Assay: Intracellular CXCL-12-induced calcium mobilization assay (FLIPR)
Type: cell-based
Settings: U87.CXCR4 cells; CXCL-12 25-50 ng/mL; compound added 15 min before; read-out: IC50 CXCL-12 Ca^2+ flux U87.CXCR4+
pIC50: −log10 of the molar value.

# CHEMICAL_STRUCTURE, ASSAYED_SYSTEM, pIC50
records = [
    ("CN1CCC(n2ccnc2[C@H]2CCC[C@@H](c3ncccc3Cl)N2)CC1", "CXCR-4 transfected U87 cell line (U87.CXCR4) (Homo sapiens, UniProt P61073)", "≤ 6.00"),
    ("Cc1cccnc1[C@@H]1CCC[C@H](c2ncc[nH]2)N1Cc1ccccc1-n1cccn1", "CXCR-4 transfected U87 cell line (U87.CXCR4) (Homo sapiens, UniProt P61073)", "≤ 6.00"),
    ("Cc1cccnc1[C@@H]1CCC[C@H](c2nc3cccc(N4CCN(C)C5(CC5)C4)c3[nH]2)N1C", "CXCR-4 transfected U87 cell line (U87.CXCR4) (Homo sapiens, UniProt P61073)", "6.00 to 7.00"),
    ("Cc1cccnc1[C@@H]1CCC[C@H](c2nc3cccc(N4CCN(C)CC4=O)c3[nH]2)N1C", "CXCR-4 transfected U87 cell line (U87.CXCR4) (Homo sapiens, UniProt P61073)", "6.00 to 7.00"),
    ("Cc1cccnc1[C@@H]1CCC[C@H](c2nc3ccccc3[nH]2)N1CCCCN", "CXCR-4 transfected U87 cell line (U87.CXCR4) (Homo sapiens, UniProt P61073)", "6.00 to 7.00"),
    ("Cc1cccnc1[C@@H]1CCC[C@H](c2nc3ccccc3n2CCCCN)N1C", "CXCR-4 transfected U87 cell line (U87.CXCR4) (Homo sapiens, UniProt P61073)", "7.00 to 11.00"),
    ("CN1CCN(c2cccc3nc([C@H]4CCC[C@@H](c5ncccc5OC5CC5)N4C)[nH]c23)CC1", "CXCR-4 transfected U87 cell line (U87.CXCR4) (Homo sapiens, UniProt P61073)", "≤ 6.00"),
    ("Cc1cccnc1[C@@H]1CCC[C@H](c2nc3ccccc3[nH]2)N1CCc1cn2ccccc2n1", "CXCR-4 transfected U87 cell line (U87.CXCR4) (Homo sapiens, UniProt P61073)", "7.00 to 11.00"),
]
